assay: pharmacokinetic parameters in mice (plasma, LC-MS/MS); assay type: in vivo, Male ICR (CD-1) mice; settings: male, ICR (CD-1), mouse, iv-5 mg/kg
reported-endpoint: clearance (mL/min/kg)

(P) O=C(/C=C/c1ccccc1C(F)(F)F)N1C(=O)OC[C@@H]1c1ccccc1
(Q) [2H]C1([2H])OC(=O)N(C(=O)/C=C/c2ccccc2C(F)(F)F)[C@H]1c1ccccc1
// returns P or Q , whichever has the lower clearance // caller expects the label of the chosen entry Q

---

Experiment: pharmacokinetic parameters in mice (plasma, LC-MS/MS)
Format: in vivo, Male ICR (CD-1) mice
Settings: male, ICR (CD-1), mouse, iv-5 mg/kg, read-out: MRT0-∞
Description: Male ICR (CD-1) mice were divided into two groups, with three mice in each group. […] intravenously injected with 5 mg/kg of the test substance, blood was collected before administration, and 0.25 h, 0.5 h, 1 h, 2 h, 4 h, 8 h, and 24 hours after administration, respectively, and centrifuged immediately to obtain plasma, and the drug concentration in the plasma was determined using liquid chromatography tandem mass spectrometry.
reported-endpoint: MRT inf (h)

{"smiles-structure": "O=C(/C=C/c1ccccc1C(F)(F)F)N1C(=O)OC[C@@H]1c1ccccc1", "experimental-value": 1.04}
{"smiles-structure": "[2H]C1([2H])OC(=O)N(C(=O)/C=C/c2ccccc2C(F)(F)F)[C@H]1c1ccccc1", "experimental-value": 1.21}

---

experiment: pharmacokinetic parameters in mice (plasma, LC-MS/MS); assay type: in vivo, Male ICR (CD-1) mice; details: male, ICR (CD-1), mouse, po-10 mg/kg
reported-endpoint: AUC(0-inf) (ng·h/mL)
Provide only the numeric value, understood in ng·h/mL.

Looking up [2H]C1([2H])OC(=O)N(C(=O)/C=C/c2ccccc2C(F)(F)F)[C@H]1c1ccccc1 , I see its AUC(0-inf) listed as 767

---

experiment: pharmacokinetic parameters in mice (plasma, LC-MS/MS); assay type: in vivo, Male ICR (CD-1) mice; settings: male, ICR (CD-1), mouse, po-20 mg/kg
reported-endpoint: Tmax (h)
Give a bare numeral; the unit h is implied.

Recorded result, O=C(/C=C/c1ccccc1C(F)(F)F)N1C(=O)OC[C@@H]1c1ccccc1 [Example 27] , Tmax: 1

---

Assay: drug concentration in brain tissue, plasma and CSF after oral administration in mice
Assay type: in vivo
Conditions: ICR (CD-1), mouse, heart plasma, po, 20 mg/kg, PO 20 mg/kg, 15 min, mean; read-out: Heart Plasma
Text: Compound 27 has good brain tissue drug distribution after oral administration in mice, with a B/P of approximately 0.7.
reported-endpoint: concentration at 15 min (ng/mL)
A number alone suffices; assume ng/mL.

Entry under test: O=C(/C=C/c1ccccc1C(F)(F)F)N1C(=O)OC[C@@H]1c1ccccc1 [Example 27] . Its concentration at 15 min was 70.4

---

Test: pharmacokinetic parameters in mice (plasma, LC-MS/MS)
Format: in vivo, Male ICR (CD-1) mice
Details: male, ICR (CD-1), mouse, po-10 mg/kg
Protocol: Male ICR (CD-1) mice were divided into two groups, with three mice in each group. […] intravenously injected with 5 mg/kg of the test substance, blood was collected before administration, and 0.25 h, 0.5 h, 1 h, 2 h, 4 h, 8 h, and 24 hours after administration, respectively, and centrifuged immediately to obtain plasma, and the drug concentration in the plasma was determined using liquid chromatography tandem mass spectrometry.
reported-endpoint: AUC(0-t) (ng·h/mL)
Give the number; ng·h/mL is assumed, so skip it.

Short answer for [2H]C1([2H])OC(=O)N(C(=O)/C=C/c2ccccc2C(F)(F)F)[C@H]1c1ccccc1 [Example 83] : AUC(0-t) was 757

---

assay: drug concentration in brain tissue, plasma and CSF after oral administration in mice; assay type: in vivo; conditions: ICR (CD-1), mouse, portal vein plasma, po, 20 mg/kg, PO 20 mg/kg, 30 min, mean; read-out: Portal Vein Plasma
reported-endpoint: concentration at 30 min (ng/mL)
# output: bare number, implied unit ng/mL

In plain terms, O=C(/C=C/c1ccccc1C(F)(F)F)N1C(=O)OC[C@@H]1c1ccccc1 has a documented concentration at 30 min of 373

---

assay: pharmacokinetic parameters in mice (plasma, LC-MS/MS); format: in vivo, Male ICR (CD-1) mice; conditions: male, ICR (CD-1), mouse, iv-5 mg/kg
reported-endpoint: AUC(0-t) (ng·h/mL)

(A) O=C(/C=C/c1ccccc1C(F)(F)F)N1C(=O)OC[C@@H]1c1ccccc1
(B) [2H]C1([2H])OC(=O)N(C(=O)/C=C/c2ccccc2C(F)(F)F)[C@H]1c1ccccc1
Higher AUC(0-t): A or B ? I would appreciate it if you answered with the label of your choice. B
(B: 2170 ng·h/mL, A: 790 ng·h/mL)

---

assay: pharmacokinetic parameters in mice (plasma, LC-MS/MS); type: in vivo, Male ICR (CD-1) mice; conditions: male, ICR (CD-1), mouse, po-20 mg/kg vs iv-5 mg/kg, read-out: F (oral bioavailability)
reported-endpoint: bioavailability (%)
Report the figure in % without appending any unit label.

Consider O=C(/C=C/c1ccccc1C(F)(F)F)N1C(=O)OC[C@@H]1c1ccccc1 . Its measured bioavailability is 14.7

---

test: pharmacokinetic parameters in mice (plasma, LC-MS/MS); assay type: in vivo, Male ICR (CD-1) mice; conditions: male, ICR (CD-1), mouse, po-20 mg/kg
reported-endpoint: half-life (h)
Just the number please, in h, no unit attached.

Lab book: half-life of O=C(/C=C/c1ccccc1C(F)(F)F)N1C(=O)OC[C@@H]1c1ccccc1 noted as 4.01

---

experiment: drug concentration in brain tissue, plasma and CSF after oral administration in mice; assay type: in vivo; conditions: ICR (CD-1), mouse, portal vein plasma, po, 20 mg/kg, PO 20 mg/kg, 15 min, individual animals 13-15; read-out: Portal Vein Plasma
reported-endpoint: concentration at 15 min (ng/mL)
Provide the reading as a plain figure in ng/mL.

Reported concentration at 15 min ( O=C(/C=C/c1ccccc1C(F)(F)F)N1C(=O)OC[C@@H]1c1ccccc1 ) = 320

---

assay: drug concentration in brain tissue, plasma and CSF after oral administration in mice; type: in vivo; conditions: ICR (CD-1), mouse, brain/heart plasma, po, 20 mg/kg, PO 20 mg/kg, 30 min, mean; read-out: Brain/H. Plasma
reported-endpoint: Kp at 30 min
Please reply with the number alone, leaving off any unit.

The compound identified as O=C(/C=C/c1ccccc1C(F)(F)F)N1C(=O)OC[C@@H]1c1ccccc1 registered its Kp at 30 min at 0.7

---

experiment: pharmacokinetic parameters in mice (plasma, LC-MS/MS); assay type: in vivo, Male ICR (CD-1) mice; settings: male, ICR (CD-1), mouse, po-20 mg/kg
reported-endpoint: AUC(0-t) (ng·h/mL)
Give just the numeric value; ng·h/mL need not be written.

// field: AUC(0-t); key: O=C(/C=C/c1ccccc1C(F)(F)F)N1C(=O)OC[C@@H]1c1ccccc1 [Example 27] ; value = 465

---

test: pharmacokinetic parameters in mice (plasma, LC-MS/MS); format: in vivo, Male ICR (CD-1) mice; conditions: male, ICR (CD-1), mouse, po-20 mg/kg
reported-endpoint: Cmax (ng/mL)
Return type: number; implicit unit ng/mL.

Reported Cmax for O=C(/C=C/c1ccccc1C(F)(F)F)N1C(=O)OC[C@@H]1c1ccccc1 was 104

---

assay: pharmacokinetic parameters in mice (plasma, LC-MS/MS); type: in vivo, Male ICR (CD-1) mice; conditions: male, ICR (CD-1), mouse, po-10 mg/kg
reported-endpoint: Tmax (h)
Give the value, in units of h, as a plain number.

Field Tmax (entry [2H]C1([2H])OC(=O)N(C(=O)/C=C/c2ccccc2C(F)(F)F)[C@H]1c1ccccc1 ) reads 1

---

assay: pharmacokinetic parameters in mice (plasma, LC-MS/MS); type: in vivo, Male ICR (CD-1) mice; details: male, ICR (CD-1), mouse, po-10 mg/kg, read-out: MRT0-∞
reported-endpoint: MRT inf (h)
Lab book: enter the figure in h, no units written.

Looking up [2H]C1([2H])OC(=O)N(C(=O)/C=C/c2ccccc2C(F)(F)F)[C@H]1c1ccccc1 [Example 83] , I found its MRT inf recorded as 5.61

---

test: drug concentration in brain tissue, plasma and CSF after oral administration in mice; format: in vivo; settings: ICR (CD-1), mouse, brain/plasma, po, 20 mg/kg, after oral administration in mice; read-out: B/P (brain tissue drug distribution)
reported-endpoint: Kp at 15 min

Lab book: Kp at 15 min of O=C(/C=C/c1ccccc1C(F)(F)F)N1C(=O)OC[C@@H]1c1ccccc1 noted as ~0.7

---

Test: drug concentration in brain tissue, plasma and CSF after oral administration in mice
Format: in vivo
Settings: ICR (CD-1), mouse, brain/heart plasma, po, 20 mg/kg, PO 20 mg/kg, 15 min, mean; read-out: Brain/H. Plasma
Source text: Compound 27 has good brain tissue drug distribution after oral administration in mice, with a B/P of approximately 0.7.
reported-endpoint: Kp at 15 min
Reply with just the number.

Record O=C(/C=C/c1ccccc1C(F)(F)F)N1C(=O)OC[C@@H]1c1ccccc1 . Reported Kp at 15 min: 0.7
